- System: TK-10 renal
- test.protocol: NCI tumour cell line growth inhibition, 48 h; in the data active = GI50 below about 0.43 µM; inactive = the rest
Labels: true (1) for active, false (0) for inactive

[[record]]
molecule = "COc1ncnc(NS(=O)(=O)c2ccc(N=C3C(=O)N(CN4CCN(c5c(F)cc6c(=O)c(C(=O)O)cn(C7CC7)c6c5OC)CC4C)c4ccc(Br)cc43)cc2)c1OC (centres undefined)"
label_class = "false (0)"

[[record]]
molecule = "C=CCN1CC(=O)N2[C@@H](Cc3ccc(O)cc3F)C(=O)N(Cc3cccc(N4CC(N5CCN(CC)CC5)C4)n3)C[C@@H]2N1C(=O)NCc1ccccc1"
label_class = "true (1)"

[[record]]
molecule = "c1ccc2c(c1)Nc1ccncc1S2"
label_class = "false (0)"

[[record]]
molecule = "CC1(C)CC(=O)C2=C(C1)OC(N)=C(c1nc(-c3ccccc3)cs1)C2c1ccc(Br)cc1 (centres undefined)"
label_class = "false (0)"

